system: whole rat blood aggregation induced by collagen; experiment: In vitro whole blood aggregation test induced by collagen (Multiplate); assay type: cell-based; conditions: whole rat blood, collagen 1.6 µg/mL
Below: a set of entries, each annotated with reported IC50.

compound	assayed_system	IC50, µM
COc1ccccc1N1CCN(CCN2C(=O)c3ccccc3C(C)(C)C2=O)CC1 [ARC-239, reference compound]	whole rat blood aggregation induced by collagen	20.7
CC1(C)C(=O)N(CCN2CCN(c3cccc(Cl)c3)CC2)C(=O)c2ccccc21 [Compound 4]	whole rat blood aggregation induced by collagen	34.5
CC1(C)C(=O)N(CCN2CCN(c3cccc(F)c3)CC2)C(=O)c2ccccc21 [Compound 3]	whole rat blood aggregation induced by collagen	26.9
CC1(C)Oc2cccc(N3CCN(CCN4C(=O)c5ccccc5C(C)(C)C4=O)CC3)c2O1 [Compound 9]	whole rat blood aggregation induced by collagen	27.4
